tested on: CUG-RNA foci in DM1 myoblasts; assay: FISH analysis of nuclear CUG-RNA foci in DM1 myoblasts; type: cell-based, human; settings: Table 1, 10 μM, 4 days, FISH
QUANTITY MEASURED: # of Foci (percentage) 0-1: Percentage of cells with no or 1 nuclear foci
State the answer as a number, implicitly in percentage.

Exercise: Quick check: # of Foci (percentage) 0-1: Percentage of cells with no or 1 nuclear foci of `CCCCCCc1cc2cc(-c3nnc(-c4cccc(F)c4)o3)c(=O)oc2cc1O` ?
Key: 29

Exercise: What # of Foci (percentage) 0-1: Percentage of cells with no or 1 nuclear foci value was documented for this compound, `CCCCCCc1cc2cc(-c3nnc(-c4cccc(OC)c4)o3)c(=O)oc2cc1O` ?
Key: 48

Exercise: Fill in the blank: the reported # of Foci (percentage) 0-1: Percentage of cells with no or 1 nuclear foci of `CCN(CC)c1ccc2cc(-c3nnc(-c4ccc(Cl)cc4)o3)c(=O)oc2c1` is ____.
Key: 17

Exercise: Given the compound `CCCCCCc1cc2cc(-c3nnc(-c4ccc([N+](=O)[O-])cc4)o3)c(=O)oc2cc1O` , what is its reported # of Foci (percentage) 0-1: Percentage of cells with no or 1 nuclear foci?
Key: 14

Exercise: Reported # of Foci (percentage) 0-1: Percentage of cells with no or 1 nuclear foci, compound `CCCCCCc1cc2cc(C(=O)Nc3cccc(OC)c3)c(=O)oc2cc1O` : ____
Key: 24
